Source of measurements: patent US10251892B2

Kindly state FGFR4/FGFR3 for each of the entries shown.
Tested Target: FGFR3 enzyme (Homo sapiens (Human), UniProt P22607)
Sequence (P22607 23-806): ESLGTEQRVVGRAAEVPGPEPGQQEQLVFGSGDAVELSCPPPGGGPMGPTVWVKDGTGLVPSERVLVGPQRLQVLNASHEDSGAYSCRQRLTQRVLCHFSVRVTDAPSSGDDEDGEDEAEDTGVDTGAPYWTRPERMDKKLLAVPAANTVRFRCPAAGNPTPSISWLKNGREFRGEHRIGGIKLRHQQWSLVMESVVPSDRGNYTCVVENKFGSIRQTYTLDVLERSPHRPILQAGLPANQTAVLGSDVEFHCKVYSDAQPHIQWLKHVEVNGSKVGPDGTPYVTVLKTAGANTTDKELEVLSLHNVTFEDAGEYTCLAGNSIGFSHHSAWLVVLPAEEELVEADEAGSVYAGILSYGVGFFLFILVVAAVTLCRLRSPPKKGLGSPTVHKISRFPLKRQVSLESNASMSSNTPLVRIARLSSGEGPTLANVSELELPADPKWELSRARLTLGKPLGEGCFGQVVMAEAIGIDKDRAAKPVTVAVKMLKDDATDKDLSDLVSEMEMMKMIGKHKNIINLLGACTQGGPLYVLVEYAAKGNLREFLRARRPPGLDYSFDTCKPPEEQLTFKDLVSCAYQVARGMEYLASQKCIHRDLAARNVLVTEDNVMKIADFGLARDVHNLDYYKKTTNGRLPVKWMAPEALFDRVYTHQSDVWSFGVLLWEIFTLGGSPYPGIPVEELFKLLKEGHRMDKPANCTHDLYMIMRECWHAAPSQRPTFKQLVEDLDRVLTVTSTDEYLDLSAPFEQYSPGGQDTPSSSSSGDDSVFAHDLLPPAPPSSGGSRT
Assay Details: FGFR Enzymatic Assay (peptide phosphorylation, FRET), FGFR3
Format: biochemical
Test Parameters: IC50 ratio showing FGFR3 selectivity; pre-incubated for 4 hours

Query :: Param item = `CCN1C(=O)N(c2c(F)c(OC)cc(OC)c2F)Cc2cnc(-c3ccc(CC#N)cc3)cc21` ; retrieve measured FGFR4/FGFR3.
Result :: >5

List the reported FGFR4/FGFR3 of each molecule below.
1. COc1cc(OC)c(F)c(N2Cc3cnc(-c4cn(CCN5CCOCC5)nc4C)cc3C3(CC3)C2=O)c1F
2. COc1cc(OC)c(F)c(N2Cc3cnc(-c4cn(C)nc4C)cc3N(CC3CC3)C2=O)c1F
3. COc1cc(OC)c(F)c(N2Cc3cnc(-c4cn(C)nc4C)cc3N(Cc3ccncn3)C2=O)c1F
4. COc1cc(OC)c(F)c(N2Cc3cnc(-c4cn(C5CCS(=O)(=O)C5)nc4C)cc3C3(CC3)C2=O)c1F (stereo not shown)
5. COc1cc(OC)c(F)c(N2Cc3cnc(-c4cn(CCN(C)C)nc4C)cc3C3(CC3)C2=O)c1F
6. CCCN1C(=O)N(c2c(F)c(OC)cc(OC)c2F)Cc2cnc(-c3cn(C)nc3C)cc21

Result ::
1. >1
2. >5
3. >10
4. >1
5. >3
6. >5

====

Tested Target: FGFR3 enzyme (Homo sapiens (Human))
Assay Details: FGFR Enzymatic Assay (peptide phosphorylation, FRET), FGFR3
Type: biochemical
Test Parameters: IC50 ratio showing FGFR3 selectivity; pre-incubated for 4 hours
Method: The inhibitor potency of the exemplified compounds was measured in an enzyme assay that measures peptide phosphorylation using FRET measurements to detect product formation. Inhibitors were serially diluted in DMSO and a volume of 0.5 μL was transferred to the wells of a 384-well plate. GraphPad prism3 was used to analyze the data.
Kindly state FGFR1/FGFR3 for each of the entries shown.

Observe how each entry below is paired with its result.
Query :: Param item = COc1cc(OC)c(F)c(N2Cc3cnc(-c4cc(N)cnc4C)cc3C3(CC3)C2=O)c1F [Example 7] ; retrieve measured FGFR1/FGFR3.
Result :: >1

Query :: COc1cc(OC)c(F)c(N2Cc3cnc(-c4cn(C5CCN(C)C5)nc4C)cc3C3(CC3)C2=O)c1F (centres unmarked) [Example 163] ?
Result :: >3

List the reported FGFR1/FGFR3 of each compound below.
1. CCn1cc(-c2cc3c(cn2)CN(c2c(F)c(OC)cc(OC)c2F)C(=O)C32CC2)c(C)n1 [Example 158]
2. COc1cc(OC)c(F)c(N2Cc3cnc(-c4cn(C)nc4C)cc3N(c3ccc(C#N)cc3)C2=O)c1F [Example 44]
3. COc1cc(OC)c(F)c(N2Cc3cnc(-c4cn(C)nc4C)cc3N(c3ccccc3F)C2=O)c1F [Example 110]
4. COc1cc(OC)c(F)c(N2Cc3cnc(-c4cnn(C5CCN(C(C)=O)C5)c4)cc3C3(CC3)C2=O)c1F (centres unmarked) [Example 150]
5. COc1cc(OC)c(F)c(N2Cc3cnc(-c4cn(C)nc4C)cc3C3(CC3)C2=O)c1F [Example 21]
6. COc1cc(OC)c(F)c(N2Cc3cnc(-c4cn(C)nc4C)cc3N(C[C@H]3CCOC3)C2=O)c1F [Example 108]

Result ::
>5
>10
>3
>5
>5
>3
